B1: ZNF8 (parent)
chain: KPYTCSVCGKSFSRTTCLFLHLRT

Variants of: B1
Assay: protein stability index of a GFP-peptide fusion (GPS, HEK-293T) (PSI 1-6); higher = more stable;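 further: lentivirally expressed fusions sorted by FACS into six bins by GFP to DsRed ratio, PSI derived from sequencing read proportions per bin multiplied by bin number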
Settings: c terminus: a fixed tail appended
protein stability index: recorded values
experimental_readout: protein stability index

• L18I = 2.49
• F12T = 1.37
• R23F = 1.64
• K10E = 1.47
• G9P = 1.72
• K1H = 2.1
• K10R = 1.87
• K1C = 2.08
• C17I = 2.14
• L18W = 2.18
• Y3P = 1.69
• T24M = 2.44
• R14T = 3.19
• Y3T = 2.4
• K1E = 2.19
• F19V = 1.9
• L22N = 2.57
• V7S = 2.04
• L20G = 2.1
• R23I = 2.05
• S6K = 2.46
• H21R = 1.4
• P2Q = 1.87
• T16F = 1.39
• K1T = 1.67
• P2E = 2.55
• V7C = 2.82
• T16Q = 2.73
• T4C = 2.1
